- assay_name: fission yeast growth modulation, primary screen, strain 972, OD600, 24 h, no modulator (AID 1090);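 also: basal condition with compound alone and no growth modifier present; test concentration not given here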
- assay_setup: S. pombe 972 growth, called active from +8 up or from −8 down
Activity calls are given as the source filed them.
Tick one outcome: t for active, f for inactive

Take a look at these entries with their results.
# molecule, category
records = [
    ("C=C/C=C/[C@H]1C(=C)CN([C@@H](Cc2ccccc2)C(=O)OC)[C@@H]1[C@H](O)Cc1ccccc1", "f"),
    ("CC(=O)NCCCC[C@@H]1NC(=O)[C@@H]2C[C@H](C(=O)NCCCCN(C)C)[C@H](c3cccc(OCCO)c3)N2C1=O", "f"),
    ("NCCCCCNC(=O)[C@@H]1C[C@@H]2C(=O)NCC(=O)N2[C@@H]1c1ccc(O)cc1", "f"),
    ("COC(=O)[C@@]1(Cc2ccccc2)[C@H]2c3cc(C(=O)N4CCCC4)n(Cc4nc5ccccc5[nH]4)c3C[C@H]2CN1C(=O)c1ccccc1", "f"),
    ("COC(=O)[C@@]1(Cc2ccccc2)[C@H]2c3cc(C(=O)N4CCCC4)n(CC4CC4)c3C[C@H]2CN1C(=O)c1ccccc1", "f"),
    ("C=C(C)C1C(=C)CN([C@H](CO)c2ccccc2)C1=O (some centres not stated)", "f"),
]

Qu. What did the test return for CN1C(=O)C2C=CC(C(O)c3ccc(-c4ccccc4)s3)N(N(c3ccccc3)c3ccccc3)C2C1=O (configuration not stated) ?
Ans. f

Qu. Hello, I am checking results. What call was entered for O=C(NCc1ccccc1)[C@@]1(CCS(=O)(=O)c2ccccc2)N=C(c2ccc(OCCCO)cc2)O[C@H]1c1ccccc1 ?
Ans. f

Provenance of the data: PubChem BioAssay
